Test: recombinant UMI read abundance after kanamycin selection (control-corrected) (log10(CPM+1)); higher = more efficient recombination; extreme values may be limits of the assay; sequences stand for … in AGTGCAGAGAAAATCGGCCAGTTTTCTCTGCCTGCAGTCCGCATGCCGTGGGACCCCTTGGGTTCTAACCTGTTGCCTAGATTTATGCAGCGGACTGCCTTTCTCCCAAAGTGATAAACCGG…AGGTTGGTTTCACT; site = the 11-nt donor
Entries and their measured recombinant UMI read abundance (log10) follow.
// keep it numeric: no unit symbol after the value

Query :: Given the sequence GGTTTGTCATGGACCGGTTTTCCCGGTAATCCGTATTTGTG (site GGTTTGTCTCA) , what is its reported recombinant UMI read abundance (log10)?
Result :: 1.21

Query :: Given the sequence CGGAATCCATGGACCGGTTTTCCCGGTAATCCGTATTTGTT (site TGGAATGCTAA) , what is its reported recombinant UMI read abundance (log10)?
Result :: 0.00525

Query :: Given the sequence AGGATGCCATGGACCGGTTTTCCCGGTAATCCGTATTTGCT (site AGGATGCCTAG) , what is its reported recombinant UMI read abundance (log10)?
Result :: 0.721

Query :: Given the sequence TTCGCGACATGGACCGGTTTTCCCGGTAATCCGTATTTGAA (site TTCGCGACTTT) , what is its reported recombinant UMI read abundance (log10)?
Result :: 0.0402

Query :: Given the sequence GGAGAGGCATGGACCGGTTTTCCCGGTAATCCGTATTTGGT (site GGAGAGGCTAC) , what is its reported recombinant UMI read abundance (log10)?
Result :: 0.00324

Query :: Given the sequence CGGGAGTCATGGACCGGTTTTCCCGGTAATCCGTATTTGCC (site CGGGAGTCTGC) , what is its reported recombinant UMI read abundance (log10)?
Result :: 2.08

Query :: Given the sequence GCACGAACATGGACCGGTTTTCCCGGTAATCCGTATTTGTC (site TCACGAACTGA) , what is its reported recombinant UMI read abundance (log10)?
Result :: 0.552

Query :: Given the sequence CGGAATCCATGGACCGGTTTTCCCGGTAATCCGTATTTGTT (site TGGAATCCTCA) , what is its reported recombinant UMI read abundance (log10)?
Result :: 0.00675

Query :: Given the sequence CCCGGTTCATGGACCGGTTTTCCCGGTAATCCGTATTTGCA (site CCCGGTGCTTG) , what is its reported recombinant UMI read abundance (log10)?
Result :: 0.0148

---

Assay: recombinant barcode read abundance after kanamycin selection (control-corrected) (log10(CPM+1)); higher = more efficient recombination; sequences stand for … in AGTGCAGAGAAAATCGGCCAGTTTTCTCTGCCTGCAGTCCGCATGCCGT…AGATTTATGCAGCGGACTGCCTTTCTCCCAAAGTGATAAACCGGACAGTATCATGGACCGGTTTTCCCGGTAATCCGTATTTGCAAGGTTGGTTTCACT; site = the 11-nt target
measurement.label: recombinant barcode read abundance (log10)
// keep it numeric: no unit symbol after the value

Example entries and their recorded answers appear below.
>  <sequence.input>
AAGCCACCTTGGGTTCTAACCTGTTGCCT (site TAGCCACCTAG)

>  <experimental.value>
1.31

$$$$
>  <sequence.input>
CTGCAAGCTTGGGTTCTAACCTGTTGCCT (site CTGCAAGCTAG)

>  <experimental.value>
0.995

$$$$

Query :: Given the sequence CTAGAGTCTTGGGTTCTAACCTGTTGCTT (site CTAGCGTCTAA) , what is its reported recombinant barcode read abundance (log10)?
Result :: 0.0496

Query :: Given the sequence GGGGAAGCTTGGGTTCTAACCTGTTGCCT (site GTGGAAGCTAG) , what is its reported recombinant barcode read abundance (log10)?
Result :: 0.291

Query :: Given the sequence GCGAACCCTTGGGTTCTAACCTGTTGCTT (site TCGAACCCTAA) , what is its reported recombinant barcode read abundance (log10)?
Result :: 0.0595

Query :: Given the sequence TAGTTCACTTGGGTTCTAACCTGTTGCAT (site TAGATCACTAT) , what is its reported recombinant barcode read abundance (log10)?
Result :: 0.0793
